Values compiled from PubChem BioAssay (NCI).

# System: M14 melanoma
# assay text: NCI-60 one-dose screen, 48 h (100 = growth as untreated, 0 = no growth, -100 = all killed)
# condition description: 10 µM unless noted
This is part of a sample that, as a whole, favours compounds with a hit. Of some 83,000 tested, about 20% had one in any assay. Activity calls are given as the source filed them. Rule for the calls: active = growth percent below 10; inactive = the rest.
Exercise: for every item that follows, state its recorded growth.

Read the entry O=C(Nc1ccncc1)C(=O)c1cn(S(=O)(=O)c2ccc(Br)cc2)c2ccccc12 and write its reported growth.
31.6% (inactive)

Please report growth for the following molecule: O=c1cc/c(=N\Nc2ccccc2)c(=O)/c1=N/Nc1ccccc1
82.2% (inactive)

Return value of growth for input O=C1NC(=C(Cl)Cl)/C(=N/S(=O)(=O)N2CCC(C3(C(F)(F)F)N=N3)CC2)N1 , no commentary.
98.9% (inactive)

Answer with reported growth of Cc1cc(C(C)(C)C)ccc1S
112% (inactive)
